Numbers sourced from ChEMBL document CHEMBL1155906.

Biological target: Cannabinoid receptor 1 (Homo sapiens, UniProt P21554)
Sequence (P21554 whole entry): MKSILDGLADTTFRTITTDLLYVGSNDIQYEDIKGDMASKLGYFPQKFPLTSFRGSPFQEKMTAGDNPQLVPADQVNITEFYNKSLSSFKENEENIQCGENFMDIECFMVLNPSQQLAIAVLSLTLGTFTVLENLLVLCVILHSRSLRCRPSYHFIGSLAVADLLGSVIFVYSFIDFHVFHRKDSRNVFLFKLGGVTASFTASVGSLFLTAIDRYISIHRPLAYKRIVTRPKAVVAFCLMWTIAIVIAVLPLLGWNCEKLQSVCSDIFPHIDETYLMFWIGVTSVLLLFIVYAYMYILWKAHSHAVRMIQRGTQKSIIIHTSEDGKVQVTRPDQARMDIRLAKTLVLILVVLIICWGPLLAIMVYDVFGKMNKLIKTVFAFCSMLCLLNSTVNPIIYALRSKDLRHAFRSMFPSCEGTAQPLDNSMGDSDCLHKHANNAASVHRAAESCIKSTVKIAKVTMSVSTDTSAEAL
Assay: Agonist activity at human CB1 receptor expressed in insect Sf9 cells assessed as effect on Eu-GTP binding relative to CP-55940
Decision: Emax compared against 40%; not below it gives YES, below it gives NO.

>>> label("Fc1ccc(-c2noc(C3CCN(c4cnc5c(c4)CCCC5)CC3)n2)c(Cl)c1")
"YES"
>>> label("Clc1ccc(-c2noc(C3CCN(c4cnc5ccccc5c4)CC3)n2)c(Cl)c1")
"NO"
>>> label("Fc1ccc(-c2noc(CCCNc3cnc4ccccc4c3)n2)c(Cl)c1")
"YES"
>>> label("Fc1ccc(-c2noc(C3CCN(c4cnc5c(C(F)(F)F)cccc5c4)CC3)n2)c(Cl)c1")
"NO"
>>> label("O=C(CCc1nc(-c2ccc(F)cc2Cl)no1)Nc1cnc2ccccc2c1")
"YES"
>>> label("Fc1ccc(-c2noc([C@H]3CC[C@@H](Nc4cnc5ccccc5c4)C3)n2)c(Cl)c1 (racemic)")
"NO"
>>> label("Fc1ccc(-c2noc(C[C@H]3CCN(c4cnc5ccccc5c4)C3)n2)c(Cl)c1")
"NO"
>>> label("CC(C)c1noc(C2CCN(c3cnc4ccccc4c3)CC2)n1")
"NO"
>>> label("Fc1ccc(-c2noc(C3CCN(c4ccc(Cl)c(C(F)(F)F)c4)CC3)n2)c(Cl)c1")
"NO"

###

Target: Substance-P receptor (Homo sapiens)
Sequence (P25103 whole entry): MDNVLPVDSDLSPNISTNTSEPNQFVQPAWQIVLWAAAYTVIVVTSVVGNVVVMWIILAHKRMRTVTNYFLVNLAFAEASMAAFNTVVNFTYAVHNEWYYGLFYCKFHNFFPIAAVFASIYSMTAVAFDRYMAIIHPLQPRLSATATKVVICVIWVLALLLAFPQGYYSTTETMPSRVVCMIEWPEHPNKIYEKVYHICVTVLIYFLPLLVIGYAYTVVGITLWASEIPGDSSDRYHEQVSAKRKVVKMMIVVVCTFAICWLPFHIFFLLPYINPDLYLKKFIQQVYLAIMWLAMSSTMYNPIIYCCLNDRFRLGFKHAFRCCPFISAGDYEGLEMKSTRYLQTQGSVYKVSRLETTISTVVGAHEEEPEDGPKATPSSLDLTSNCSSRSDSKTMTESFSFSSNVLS
Assay: Agonist activity at NK1 receptor
measurement_name: EC50

>>> recorded_value("Fc1ccc(-c2noc(C3CCN(c4cnc5ccc(Cl)cc5c4)CC3)n2)c(Cl)c1")
"> 50 µM"

###

Molecular target: Cannabinoid receptor 2 (Homo sapiens, UniProt P34972)
Sequence (P34972 whole entry): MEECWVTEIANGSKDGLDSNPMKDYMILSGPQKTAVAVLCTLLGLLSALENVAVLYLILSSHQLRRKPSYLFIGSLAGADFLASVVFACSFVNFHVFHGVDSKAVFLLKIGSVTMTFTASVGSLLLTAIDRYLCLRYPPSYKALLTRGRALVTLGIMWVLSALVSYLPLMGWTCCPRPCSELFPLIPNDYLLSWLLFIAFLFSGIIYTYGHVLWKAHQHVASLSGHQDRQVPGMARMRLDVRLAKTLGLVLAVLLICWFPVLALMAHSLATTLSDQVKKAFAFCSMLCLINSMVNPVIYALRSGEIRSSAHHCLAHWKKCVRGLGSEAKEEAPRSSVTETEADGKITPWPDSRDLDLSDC
Assay: Agonist activity at human CB2 receptor assessed as inhibition of forskolin-induced increase in intracellular cAMP
Assay type: functional, cell-based
measurement_name: EC50 (nM)

>>> recorded_value("Fc1ccc(-c2noc(C3CCN(c4cnc5ccc(Cl)cc5c4)CC3)n2)c(Cl)c1")
11
>>> recorded_value("O=C(CCc1nc(-c2ccc(F)cc2Cl)no1)Nc1cnc2ccccc2c1")
5
>>> recorded_value("CC(C)(CCc1nc(-c2ccc(F)cc2Cl)no1)Nc1cnc2ccccc2c1")
50
>>> recorded_value("Fc1ccc(-c2noc(C3CCN(c4cnc5ccccc5c4)CC3)n2)c(Cl)c1")
17

###

Target: Cannabinoid receptor 2 (Homo sapiens)
Assay: Agonist activity at human CB2 receptor expressed in insect Sf9 cells assessed as effect on Eu-GTP binding relative to CP-55940
Lab note: anything with Emax below 80% is marked Fulfilled; values at 80% or higher are marked Not fulfilled.

>>> label("Fc1ccc(-c2noc(C3CCN(c4cnc5c(c4)CCCC5)CC3)n2)c(Cl)c1")
"Not fulfilled"
>>> label("Fc1ccc(-c2noc(C[C@@H]3CCN(c4cnc5ccccc5c4)C3)n2)c(Cl)c1")
"Not fulfilled"
>>> label("c1ccc2ncc(N3CCC(c4nc(-c5ccncc5)no4)CC3)cc2c1")
"Fulfilled"
>>> label("Clc1cnccc1-c1noc(C2CCN(c3cnc4ccccc4c3)CC2)n1")
"Not fulfilled"
>>> label("Fc1ccc(-c2noc(C3CCN(c4ccc(Cl)c(C(F)(F)F)c4)CC3)n2)c(Cl)c1")
"Not fulfilled"
>>> label("CC(C)n1ccc2cc(N3CCC(c4nc(-c5ccc(F)cc5Cl)no4)CC3)cnc21")
"Not fulfilled"
>>> label("Fc1ccc(-c2noc(C3CCN(c4ccnc5ccccc45)CC3)n2)c(Cl)c1")
"Fulfilled"
>>> label("Fc1ccc(-c2noc([C@H]3C[C@@H]3CNc3cnc4ccccc4c3)n2)c(Cl)c1 (racemic)")
"Not fulfilled"
>>> label("Fc1ccc(-c2noc(CCCNc3cnc4ccccc4c3)n2)c(Cl)c1")
"Not fulfilled"
>>> label("CC(C)(CCc1nc(-c2ccc(F)cc2Cl)no1)Nc1cnc2ccccc2c1")
"Fulfilled"
>>> label("Fc1ccc(-c2noc(C3CCN(c4cnc5ccc(OC(F)(F)F)cc5c4)CC3)n2)c(Cl)c1")
"Not fulfilled"
>>> label("Clc1ccc(-c2noc(C3CCN(c4cnc5ccccc5c4)CC3)n2)c(Cl)c1")
"Not fulfilled"
>>> label("Fc1ccc(-c2noc([C@H]3CC[C@@H](Nc4cnc5ccccc5c4)C3)n2)c(Cl)c1 (racemic)")
"Fulfilled"
>>> label("Clc1ccc(-c2noc(C3CCN(c4cnc5ccccc5c4)CC3)n2)cc1")
"Fulfilled"
>>> label("Fc1ccc(-c2noc([C@@H]3CCC[C@H]3Nc3cnc4ccccc4c3)n2)c(Cl)c1 (racemic)")
"Fulfilled"
>>> label("Fc1ccc(-c2noc(C3CCN(c4cnc5c(C(F)(F)F)cccc5c4)CC3)n2)c(Cl)c1")
"Not fulfilled"
>>> label("O=C(CCc1nc(-c2ccc(F)cc2Cl)no1)Nc1cnc2ccccc2c1")
"Not fulfilled"
>>> label("O=C(NCCc1nc(-c2ccc(F)cc2Cl)no1)c1cnc2ccccc2c1")
"Not fulfilled"
>>> label("Fc1ccc(-c2noc(C3CCN(c4cnc5ccc(Cl)cc5c4)CC3)n2)c(Cl)c1")
"Not fulfilled"
>>> label("CC1(C)CCCc2cc(N3CCC(c4nc(-c5ccc(F)cc5Cl)no4)CC3)cnc21")
"Not fulfilled"
>>> label("O=C(O)CCc1nc(-c2ccc(F)cc2Cl)no1")
"Fulfilled"
>>> label("Fc1ccc(-c2noc(C[C@H]3CCN(c4cnc5ccccc5c4)C3)n2)c(Cl)c1")
"Not fulfilled"

###

Molecular target: Muscarinic acetylcholine receptor M1 (Homo sapiens, UniProt P11229)
Sequence (P11229 whole entry): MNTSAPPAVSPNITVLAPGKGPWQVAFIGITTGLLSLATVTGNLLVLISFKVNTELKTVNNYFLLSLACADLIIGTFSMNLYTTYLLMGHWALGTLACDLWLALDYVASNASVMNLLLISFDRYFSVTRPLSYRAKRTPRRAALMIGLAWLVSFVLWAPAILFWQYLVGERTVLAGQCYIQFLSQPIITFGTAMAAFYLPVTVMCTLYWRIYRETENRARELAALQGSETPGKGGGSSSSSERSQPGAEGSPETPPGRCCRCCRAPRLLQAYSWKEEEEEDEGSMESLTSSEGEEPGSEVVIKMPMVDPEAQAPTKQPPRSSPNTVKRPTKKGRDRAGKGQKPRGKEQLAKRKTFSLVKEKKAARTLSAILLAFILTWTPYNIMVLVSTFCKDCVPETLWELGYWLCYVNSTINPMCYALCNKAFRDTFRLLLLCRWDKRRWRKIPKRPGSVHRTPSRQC
Assay: Inhibition of muscarinic M1 receptor
measurement_name: IC50

>>> recorded_value("Fc1ccc(-c2noc(C3CCN(c4cnc5ccc(Cl)cc5c4)CC3)n2)c(Cl)c1")
"> 50 µM"

###

Experiment: AUC (0 to 24 hrs) in Sprague-Dawley rat at 10 mg/kg, po
Type: ADME, organism-based
Design: time < 24 hr, dose 10 mg/kg, route oral
Details: plasma
measurement_name: AUC(0-t) at 24 h (ng·h/mL)

>>> recorded_value("Fc1ccc(-c2noc(C3CCN(c4cnc5ccc(Cl)cc5c4)CC3)n2)c(Cl)c1")
5240

###

Experiment: Half life in Sprague-Dawley rat at 0.5 mg/kg, iv
Format: ADME, organism-based
Design: dose 0.5 mg/kg, route intravenous
Details: in vivo
measurement_name: half-life

>>> recorded_value("Fc1ccc(-c2noc(C3CCN(c4cnc5ccc(Cl)cc5c4)CC3)n2)c(Cl)c1")
"8.9 h"

###

Molecular target: Cannabinoid receptor 1 (Homo sapiens, UniProt P21554)
Test: Agonist activity at human CB1 receptor expressed in insect Sf9 cells assessed as effect on Eu-GTP binding
Examples of compounds with documented log10(EC50) follow.
measurement_name: log10(EC50) (log10 of the value in µM)

>>> recorded_value("Fc1ccc(-c2noc(C3CCN(c4cnc5ccccc5c4)CC3)n2)c(Cl)c1")
0.48
>>> recorded_value("Fc1ccc(-c2noc(C3CCN(c4cnc5ccc(OC(F)(F)F)cc5c4)CC3)n2)c(Cl)c1")
-0.38
>>> recorded_value("Clc1ccc(-c2noc(C3CCN(c4cnc5ccccc5c4)CC3)n2)c(Cl)c1")
-0.02
>>> recorded_value("CC1(C)CCCc2cc(N3CCC(c4nc(-c5ccc(F)cc5Cl)no4)CC3)cnc21")
-0.14
>>> recorded_value("c1ccc2ncc(N3CCC(c4nc(C5CCCCC5)no4)CC3)cc2c1")
-0.22
>>> recorded_value("CC(CCc1nc(-c2ccc(F)cc2Cl)no1)Nc1cnc2ccccc2c1 (racemic)")
0.19
>>> recorded_value("Clc1cnccc1-c1noc(C2CCN(c3cnc4ccccc4c3)CC2)n1")
-1.02

###

Target: Voltage-gated inwardly rectifying potassium channel KCNH2 (Homo sapiens)
Sequence (Q12809 whole entry): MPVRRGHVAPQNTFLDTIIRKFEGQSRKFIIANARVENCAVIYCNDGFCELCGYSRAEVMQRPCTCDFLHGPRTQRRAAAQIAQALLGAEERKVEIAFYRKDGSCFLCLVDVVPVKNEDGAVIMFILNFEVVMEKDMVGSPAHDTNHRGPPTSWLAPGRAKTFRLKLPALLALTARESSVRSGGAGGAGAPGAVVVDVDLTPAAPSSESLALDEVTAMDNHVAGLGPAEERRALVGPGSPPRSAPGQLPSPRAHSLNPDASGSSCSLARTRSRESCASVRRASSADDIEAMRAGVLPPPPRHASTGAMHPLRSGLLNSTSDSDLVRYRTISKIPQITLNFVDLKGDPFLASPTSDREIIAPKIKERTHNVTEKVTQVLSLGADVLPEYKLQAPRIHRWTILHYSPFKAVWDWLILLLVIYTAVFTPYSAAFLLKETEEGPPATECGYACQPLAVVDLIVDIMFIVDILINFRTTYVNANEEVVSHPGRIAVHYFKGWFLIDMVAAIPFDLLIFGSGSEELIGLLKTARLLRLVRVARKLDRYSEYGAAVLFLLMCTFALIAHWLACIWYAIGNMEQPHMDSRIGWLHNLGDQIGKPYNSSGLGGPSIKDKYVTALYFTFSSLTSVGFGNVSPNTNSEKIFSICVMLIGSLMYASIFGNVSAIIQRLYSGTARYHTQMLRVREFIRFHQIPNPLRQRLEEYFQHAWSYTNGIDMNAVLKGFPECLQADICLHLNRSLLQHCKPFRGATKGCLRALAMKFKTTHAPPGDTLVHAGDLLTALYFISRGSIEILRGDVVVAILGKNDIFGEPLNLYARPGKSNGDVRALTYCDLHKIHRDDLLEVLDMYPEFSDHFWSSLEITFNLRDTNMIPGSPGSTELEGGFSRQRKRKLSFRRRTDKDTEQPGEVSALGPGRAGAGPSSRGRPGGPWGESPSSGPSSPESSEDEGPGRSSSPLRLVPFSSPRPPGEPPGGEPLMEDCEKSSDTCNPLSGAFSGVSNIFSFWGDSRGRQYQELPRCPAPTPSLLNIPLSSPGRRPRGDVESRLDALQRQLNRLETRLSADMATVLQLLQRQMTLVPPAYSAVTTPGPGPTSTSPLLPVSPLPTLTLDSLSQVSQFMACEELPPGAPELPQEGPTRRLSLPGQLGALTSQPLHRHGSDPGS
measurement_name: IC50 (nM)

>>> recorded_value("Fc1ccc(-c2noc(C3CCN(c4cnc5ccc(Cl)cc5c4)CC3)n2)c(Cl)c1")
500

###

Parameter: pEC50. Scope: all listed entries.
Target: UniProtKB P21554
Assay: Agonist activity at human CB1 receptor assessed as inhibition of forskolin-induced increase in intracellular cAMP
Format: functional, cell-based
pEC50: −log10 of the molar value.
measurement_name: pEC50

>>> recorded_value("Fc1ccc(-c2noc(C[C@@H]3CCN(c4cnc5ccccc5c4)C3)n2)c(Cl)c1")
"< 5.70"
>>> recorded_value("CC(C)(CCc1nc(-c2ccc(F)cc2Cl)no1)Nc1cnc2ccccc2c1")
"< 5.70"
>>> recorded_value("Fc1ccc(-c2noc(C3CCN(c4cnc5ccccc5c4)CC3)n2)c(Cl)c1")
"< 6.00"
>>> recorded_value("Fc1ccc(-c2noc(C3CCN(c4cnc5ccc(Cl)cc5c4)CC3)n2)c(Cl)c1")
"< 5.70"
>>> recorded_value("Fc1ccc(-c2noc([C@H]3C[C@@H]3CNc3cnc4ccccc4c3)n2)c(Cl)c1 (racemic)")
"< 5.70"
>>> recorded_value("O=C(CCc1nc(-c2ccc(F)cc2Cl)no1)Nc1cnc2ccccc2c1")
6.25

###

Target: Cannabinoid receptor 2 (Homo sapiens, UniProt P34972)
Assay: Agonist activity at human CB2 receptor expressed in insect Sf9 cells assessed as effect on Eu-GTP binding relative to CP-55940
measurement_name: Emax (%)

>>> recorded_value("Fc1ccc(-c2noc(C3CCN(c4cnc5ccccc5c4)CC3)n2)c(Cl)c1")
101
>>> recorded_value("CC(C)c1noc(C2CCN(c3cnc4ccccc4c3)CC2)n1")
38
>>> recorded_value("c1ccc2ncc(N3CCC(c4nc(C5CCCCC5)no4)CC3)cc2c1")
113
>>> recorded_value("Fc1ccccc1-c1noc(C2CCN(c3cnc4ccccc4c3)CC2)n1")
89
>>> recorded_value("CC(CCc1nc(-c2ccc(F)cc2Cl)no1)Nc1cnc2ccccc2c1 (racemic)")
112
